molecular target: Cyclic GMP-AMP synthase (Homo sapiens, UniProt Q8N884); experiment: Inhibition of recombinant His6-SUMO tagged human CGAS expressed in Escherichia coli BL21/pLys cells incubated for 20 mins by Kinase Glo chemiluminescence assay
Sequence (Q8N884 whole entry): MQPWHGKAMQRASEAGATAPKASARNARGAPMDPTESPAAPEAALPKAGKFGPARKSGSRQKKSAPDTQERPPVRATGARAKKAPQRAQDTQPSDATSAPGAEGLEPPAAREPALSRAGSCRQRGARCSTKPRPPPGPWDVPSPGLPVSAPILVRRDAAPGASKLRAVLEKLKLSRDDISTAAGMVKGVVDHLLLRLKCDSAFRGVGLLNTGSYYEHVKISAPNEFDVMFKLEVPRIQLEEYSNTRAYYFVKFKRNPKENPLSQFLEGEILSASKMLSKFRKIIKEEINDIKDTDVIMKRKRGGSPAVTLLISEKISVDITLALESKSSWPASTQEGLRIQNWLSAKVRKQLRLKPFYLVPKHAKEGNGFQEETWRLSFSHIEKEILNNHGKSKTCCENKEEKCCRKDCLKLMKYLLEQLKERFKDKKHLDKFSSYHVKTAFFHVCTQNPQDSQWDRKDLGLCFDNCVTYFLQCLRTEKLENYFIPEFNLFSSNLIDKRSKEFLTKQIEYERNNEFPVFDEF
pIC50: −log10 of the molar value.
Property: pIC50; scope: individual molecules

Consider the following illustrative entries.
In [3]: df
Out[3]:
                                   molecule  endpoint_result
0  O=C1/C(=C/c2cc(OCc3cnc(NCc4ccccn4)nc3)c(O)c(F)c2Br)Sc2ncccc21           ≥ 6.30
1  CCC(Oc1cc(/C=C2\SC(=O)N(C)C2=O)c(Br)c(F)c1O)c1cnc(Cl)nc1 (stereo unspecified)     5.00 to 6.30
2  CN1C(=O)S/C(=C\c2cc(OCc3ccnc4[nH]cnc34)c(O)cc2Br)C1=O           ≥ 6.30
3  CN1C(=O)S/C(=C\c2cc(OCc3cccc4[nH]ccc34)c(O)cc2Br)C1=O     5.00 to 6.30
4  Nc1ncc(COc2cc(/C=C3\Sc4ncccc4C3=O)c(Br)c(F)c2O)cn1           ≥ 6.30
5  CN1C(=O)S/C(=C\c2cc(OCC3CCN(C(=O)c4ccccc4)CC3)c(O)cc2Br)C1=O           ≤ 5.00
6  CN1C(=O)S/C(=C\c2cc(Oc3ccccc3)c(O)cc2Br)C1=O           ≤ 5.00
7  Cc1ncc(COc2cc(/C=C3\Sc4ncccc4C3=O)c(Br)cc2O)c(C)n1           ≥ 6.30
8  Cc1ncc(COc2cc(/C=C3\SC(=O)N(C)C3=O)c(Br)cc2O)cn1           ≥ 6.30
9  CN1C(=O)S/C(=C\c2cc(OCc3ccc(NC(=O)c4ccccn4)nc3)c(O)cc2Br)C1=O           ≤ 5.00

Lab note: next molecule to report on.
Entry `C/C(=C1/SC(=O)NC1=O)c1ccncc1` has what pIC50?
≥ 6.30

---

target: Cyclic GMP-AMP synthase (Homo sapiens, UniProt Q8N884); test: Inhibition of recombinant His6-SUMO tagged human CGAS expressed in Escherichia coli BL21/pLys cells incubated for 20 mins by Kinase Glo chemiluminescence assay
pIC50: −log10 of the molar value.
Property: pIC50; scope: individual compounds

Consider the following illustrative entries.
>>> df
                                   compound                              assay_target  property_name  endpoint_result
0    CN1C(=O)S/C(=C\c2cc3cc[nH]c3cc2Br)C1=O  Cyclic GMP-AMP synthase (Homo sapiens, UniProt Q8N884)          pIC50     5.00 to 6.30
1  CN1C(=O)S/C(=C\c2cc(OCc3cncc4ccccc34)c(O)cc2Br)C1=O  Cyclic GMP-AMP synthase (Homo sapiens, UniProt Q8N884)          pIC50           ≤ 5.00
2  CC1C(=O)S/C(=C\c2cc(OC(C)c3cnc(N)nc3C(F)(F)F)c(O)c(F)c2Br)C1=O (stereo not drawn)  Cyclic GMP-AMP synthase (Homo sapiens, UniProt Q8N884)          pIC50           ≥ 6.30
3  C#CCOc1cc(/C=C2\SC(=O)N(C)C2=O)c(Br)cc1O  Cyclic GMP-AMP synthase (Homo sapiens, UniProt Q8N884)          pIC50     5.00 to 6.30
4  CN1C(=O)S/C(=C\c2cc(OCc3cnc([S+](C)[O-])nc3N)c(O)c(F)c2Br)C1=O (stereo not drawn)  Cyclic GMP-AMP synthase (Homo sapiens, UniProt Q8N884)          pIC50           ≥ 6.30
5  C[S+]([O-])c1ncc(COc2cc(/C=C3\Sc4ncccc4C3=O)c(Br)cc2O)cn1 (stereo not drawn)  Cyclic GMP-AMP synthase (Homo sapiens, UniProt Q8N884)          pIC50           ≥ 6.30

Entry `CSc1ccc(CCc2cc(/C=C3\SC(=O)N(C)C3=O)c(Br)cc2O)cc1` has what pIC50?
5.00 to 6.30

Entry `CN1C(=O)S/C(=C\c2cc3c(-c4ccc(N)cc4)c[nH]c3cc2Br)C1=O` has what pIC50?
5.00 to 6.30
